Assay Target: human muscarinic M3 receptor (Homo sapiens)
Construct: expressed in transfected cells
Sequence (P20309 whole entry): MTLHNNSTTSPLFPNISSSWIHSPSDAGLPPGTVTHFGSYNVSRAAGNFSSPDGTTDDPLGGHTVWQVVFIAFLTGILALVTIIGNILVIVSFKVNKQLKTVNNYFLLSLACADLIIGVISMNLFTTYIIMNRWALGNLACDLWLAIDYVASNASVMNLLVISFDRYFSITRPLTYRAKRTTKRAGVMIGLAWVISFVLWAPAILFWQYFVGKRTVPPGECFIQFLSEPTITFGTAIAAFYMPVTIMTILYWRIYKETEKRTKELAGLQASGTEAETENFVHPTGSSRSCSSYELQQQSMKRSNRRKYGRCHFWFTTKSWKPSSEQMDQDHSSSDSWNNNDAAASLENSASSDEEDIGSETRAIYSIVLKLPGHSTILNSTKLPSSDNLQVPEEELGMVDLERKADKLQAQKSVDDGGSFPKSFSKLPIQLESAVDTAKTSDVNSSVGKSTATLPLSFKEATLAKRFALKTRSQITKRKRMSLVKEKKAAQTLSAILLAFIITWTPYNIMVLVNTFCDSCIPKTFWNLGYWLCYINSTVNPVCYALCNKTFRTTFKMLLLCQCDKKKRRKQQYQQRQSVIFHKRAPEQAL
Protocol: Alphascreen Surefire phospho-ERK1/2 functional assay, M3
Format: cell-based
Condition Parameters: CHO, read-out: % Emax cf. ACh, M3, CHO cells stably expressing human M3; Emax relative to ACh
Measurement Kind: Emax (%)
Hi! Could you send only the number? It should be in %, unit omitted.

Check out these entries, answers already filled in.
- Compound: "CCOC(=O)N1CC2(CCC(N3CC(OC(=O)N(CC)CC)C3)C2)C1 (single isomer, unassigned) [Example 4-5 Isomer 1]"
  Assay Target: "human muscarinic M3 receptor (Homo sapiens)"
  Measurement Kind: "Emax"
  Numeric Result: 54
- Compound: "CCOC(=O)N1CC2CCC1CC2N1CC(OC(=O)N2CCCCCC2)C1 (single isomer, unassigned) [Example 6-4 Isomer 1]"
  Assay Target: "human muscarinic M3 receptor (Homo sapiens)"
  Measurement Kind: "Emax"
  Numeric Result: 5
- Compound: "CCOC(=O)N1CC2CCC1CC2N1CC(CC(=O)N(CC)CC)C1 (single isomer, unassigned) [Example 2-1 Isomer 1]"
  Assay Target: "human muscarinic M3 receptor (Homo sapiens)"
  Measurement Kind: "Emax"
  Numeric Result: 6
- Compound: "CCOC(=O)N1CC2CCC1CC2N1CC(CC(=O)N(CC)C(C)C)C1 (single isomer, unassigned) [Example 2-2 Isomer 1]"
  Assay Target: "human muscarinic M3 receptor (Homo sapiens)"
  Measurement Kind: "Emax"
  Numeric Result: 12
- Compound: "CCOC(=O)N1CC2CCC1CC2N1CC(CC(=O)N2CCC23CCC3)C1 (single isomer, unassigned) [Example 2-5 Isomer 1]"
  Assay Target: "human muscarinic M3 receptor (Homo sapiens)"
  Measurement Kind: "Emax"
  Numeric Result: 35
- Compound: "CCOC(=O)N1CC2(CCC(N3CC(OC(=O)N(C)CC)C3)C2)C1 (single isomer, unassigned) [Example 4-4 Isomer 1]"
  Assay Target: "human muscarinic M3 receptor (Homo sapiens)"
  Measurement Kind: "Emax"
  Numeric Result: 0

query: Answer briefly: Emax recorded on human muscarinic M3 receptor (Homo sapiens) for CCN(CC)C(=O)OC1CN(C2CCC3(C2)CN(C(=O)OC)C3)C1 (single isomer, unassigned) [Example 4-6 Isomer 2]
result: 11

query: Determine reported Emax for CCOC(=O)N1CCC2(CC(N3CC(OC(=O)N(CC)CC)C3)C2)C1 (single isomer, unassigned) [Example 4-2 Isomer 2] ; test system: human muscarinic M3 receptor (Homo sapiens).
result: 17

query: GET Emax | system: human muscarinic M3 receptor (Homo sapiens) | item: CCOC(=O)N1CC2(CCC(N3CC(OC(=O)N4CCCOCC4)C3)C2)C1 (single isomer, unassigned) [Example 4-9 Isomer 1]
result: 2

query: State Emax (human muscarinic M3 receptor (Homo sapiens)) of CCOC(=O)N1CC2(CCC(N3CC(OC(=O)N4CCOCC4)C3)C2)C1 (single isomer, unassigned) [Example 4-8 Isomer 1] .
result: 4

query: # return Emax of CCOC(=O)N1CC2(CCC(N3CC(OC(=O)N4CCCC4)C3)C2)C1 (single isomer, unassigned) [Example 4-7 Isomer 1] (system: human muscarinic M3 receptor (Homo sapiens))
result: 8

query: Provide Emax, system human muscarinic M3 receptor (Homo sapiens), entry CCOC(=O)N1CC2CCC1CC2N1CC(CC(=O)N2CCCCC2)C1 (single isomer, unassigned) [Example 2-3 Isomer 1]
result: 9

---

Property: Emax; scope: individual compounds
Assay Target: human muscarinic M1 receptor (Homo sapiens)
Protocol: Alphascreen Surefire phospho-ERK1/2 functional assay, M1
Format: cell-based
Condition Parameters: CHO, read-out: % Emax cf. ACh, M1, CHO cells stably expressing human M1; Emax relative to ACh
Quick reminder: number only, in %, skip the unit.

Below, each entry is followed by its recorded Emax result.
- Compound: "CCOC(=O)N1CC2CCC1CC2N1CC(OC(=O)N(CC)CC)C1 (single isomer, unassigned) [Example 6-1 Isomer 1]"
  Emax [%]: 65
- Compound: "CCOC(=O)N1CCC2(CC(N3CC(OC(=O)N(CC)CC)C3)C2)C1 (single isomer, unassigned) [Example 4-2 Isomer 2]"
  Emax [%]: 105
- Compound: "CCOC(=O)N1CC2(CCC(N3CC(OC(=O)N4CCCC4)C3)C2)C1 (single isomer, unassigned) [Example 4-7 Isomer 1]"
  Emax [%]: 51
- Compound: "CCOC(=O)N1CC2CCC1CC2N1CC(CC(=O)N2CCCOCC2)C1 (single isomer, unassigned) [Example 2-4 Isomer 1]"
  Emax [%]: 58
- Compound: "CCOC(=O)N1CC2CCC1CC2N1CC(OC(=O)N2CCCCCC2)C1 (single isomer, unassigned) [Example 6-4 Isomer 1]"
  Emax [%]: 86

query: Dear colleague, please send me the reported Emax for CCOC(=O)N1CCC2(CC(N3CC(OC(=O)N4CCCOCC4)C3)C2)C1 (single isomer, unassigned) [Example 4-3 Isomer 2] when you can.
result: 104

query: Return value of Emax for input CCOC(=O)N1CC2(CC(N3CC(OC(=O)N(CC)CC)C3)C2)C1 , no commentary.
result: 83

---

Assay Target: human muscarinic M2 receptor (Homo sapiens)
Sequence (P08172 1-466): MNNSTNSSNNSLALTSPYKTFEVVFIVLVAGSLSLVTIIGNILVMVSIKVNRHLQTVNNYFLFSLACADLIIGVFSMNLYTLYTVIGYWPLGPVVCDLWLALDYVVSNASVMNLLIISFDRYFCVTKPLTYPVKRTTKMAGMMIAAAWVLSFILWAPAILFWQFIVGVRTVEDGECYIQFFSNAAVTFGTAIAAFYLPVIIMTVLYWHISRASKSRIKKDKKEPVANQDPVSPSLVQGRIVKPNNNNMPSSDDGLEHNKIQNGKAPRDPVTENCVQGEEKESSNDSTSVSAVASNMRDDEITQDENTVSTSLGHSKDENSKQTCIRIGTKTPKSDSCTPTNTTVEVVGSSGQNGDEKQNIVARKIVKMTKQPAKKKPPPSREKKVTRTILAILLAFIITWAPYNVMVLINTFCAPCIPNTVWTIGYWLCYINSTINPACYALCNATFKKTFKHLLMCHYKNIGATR
Protocol: Alphascreen Surefire phospho-ERK1/2 functional assay, M2
Assay type: cell-based
Condition Parameters: CHO, read-out: % Emax cf. ACh, M2
Listed here are compounds together with their documented Emax.
Give the quantity in %, number only.

Consider the following illustrative entries.
- Compound: "CCOC(=O)N1C2CCC1CC(N1CC(CC(=O)N3CCCCC3)C1)C2 (mixture of isomers) [Example 1-4 Isomer mixture]"
  Unit Name: "%"
  Emax: 21
- Compound: "CCOC(=O)N1C2CCC1CC(N1CC(OC(=O)N3CCCCCC3)C1)C2 (mixture of isomers) [Example 5-1 Isomer mixture]"
  Unit Name: "%"
  Emax: 18
- Compound: "CCOC(=O)N1C2CCCC1CC(N1CC(CC(=O)N3CCCCC3)C1)C2 (single isomer, unassigned) [Example 3-3 Isomer 1]"
  Unit Name: "%"
  Emax: 5

Moving on to another compound below.
query: Return Emax for the following compound: CCOC(=O)N1C2CCC1CC(N1CC(CC(=O)N(CC)CC)C1)C2 (single isomer, unassigned) [Example 1-1 Isomer 2]
result: 58

---

In this section, each of the compounds is paired with its reported Emax.
Assay Target: human muscarinic M4 receptor (Homo sapiens, UniProt P08173)
Construct: expressed in transfected cells
Sequence (P08173 whole entry): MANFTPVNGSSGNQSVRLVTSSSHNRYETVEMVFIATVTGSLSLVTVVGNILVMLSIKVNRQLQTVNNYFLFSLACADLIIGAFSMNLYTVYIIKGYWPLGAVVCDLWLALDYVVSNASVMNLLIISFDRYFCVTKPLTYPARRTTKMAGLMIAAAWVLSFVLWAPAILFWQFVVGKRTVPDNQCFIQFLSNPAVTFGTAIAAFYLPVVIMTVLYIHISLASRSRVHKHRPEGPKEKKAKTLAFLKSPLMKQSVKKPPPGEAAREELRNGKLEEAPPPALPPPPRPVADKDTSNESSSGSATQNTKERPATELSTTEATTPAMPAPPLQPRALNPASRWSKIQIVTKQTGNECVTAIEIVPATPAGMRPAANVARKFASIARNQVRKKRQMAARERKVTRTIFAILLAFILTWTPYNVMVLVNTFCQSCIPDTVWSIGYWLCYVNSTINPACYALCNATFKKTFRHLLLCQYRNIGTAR
Protocol: Alphascreen Surefire phospho-ERK1/2 functional assay, M4
Assay type: cell-based
Condition Parameters: CHO, read-out: % Emax cf. ACh, M4

// below: answered compounds
- Compound: "CCOC(=O)N1C2CCCC1CC(N1CC(OC(=O)N(CC)CC)C1)C2 (single isomer, unassigned) [Example 7-1 Isomer 1]"
  Measurement Kind: "Emax"
  Result: "29%"
- Compound: "CCOC(=O)N1C2CCCC1CC(N1CC(CC(=O)N(CC)CC)C1)C2 (single isomer, unassigned) [Example 3-1 Isomer 1]"
  Measurement Kind: "Emax"
  Result: "23%"

Moving on to another compound below.
query: Fill in reported Emax for this entry: CCOC(=O)N1C2CCC1CC(N1CC(CC(=O)N3CCC34CCC4)C1)C2 (single isomer, unassigned) [Example 1-3 Isomer 2]
result: 19%

---

Reported EC50 values for the following compounds.
Assay Target: human muscarinic M1 receptor (Homo sapiens)
Sequence (P11229 1-460): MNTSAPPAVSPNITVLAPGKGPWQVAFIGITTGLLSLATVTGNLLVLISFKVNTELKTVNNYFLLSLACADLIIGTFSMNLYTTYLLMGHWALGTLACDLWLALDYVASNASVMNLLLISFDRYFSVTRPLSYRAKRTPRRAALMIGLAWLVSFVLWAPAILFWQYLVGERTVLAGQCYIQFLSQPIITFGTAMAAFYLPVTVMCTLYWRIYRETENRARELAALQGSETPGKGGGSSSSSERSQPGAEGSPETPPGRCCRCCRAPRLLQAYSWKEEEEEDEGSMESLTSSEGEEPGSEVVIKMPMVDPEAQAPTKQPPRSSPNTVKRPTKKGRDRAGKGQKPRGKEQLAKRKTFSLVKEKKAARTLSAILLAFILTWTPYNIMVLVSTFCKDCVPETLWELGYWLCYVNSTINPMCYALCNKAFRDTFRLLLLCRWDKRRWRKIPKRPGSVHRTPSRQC
Protocol: Alphascreen Surefire phospho-ERK1/2 functional assay, M1
Type: cell-based
Condition Parameters: CHO cells stably expressing human M1; agonist 5 min, 37° C.; read-out: pEC50 M1 (converted)
Please answer using a numeric value trailed by its unit.

- Compound: "CCOC(=O)N1C2COCC1CC(N1CC(OC(=O)N3CCCCCC3)C1)C2 (single isomer, unassigned) [Example 8-1 Isomer 1]"
  Assay Target: "human muscarinic M1 receptor (Homo sapiens)"
  EC50: "257 nM"

query: Tell us which EC50 value is on record for CCOC(=O)N1C2CCC1CC(N1CC(CC(=O)N3CCCCC3)C1)C2 (mixture of isomers) [Example 1-4 Isomer mixture]
result: 309 nM

query: Give recorded EC50. CCOC(=O)N1CC2CCC1CC2N1CC(OC(=O)N2CCCOCC2)C1 (single isomer, unassigned) [Example 6-5 Isomer 1]
result: 813 nM

Reference for the values: patent US11945801B2
